- Tested on: Zika virus NS2B-NS3 protease (linked construct)
- assay-summary: Primary screen NINDS Rhodamine qHTS for Zika virus inhibitors (AID 1347160); also: nearly all actives have a fitted effect of over 55% in size
- condition-summary: purified NS2B-NS3 protease, Rhodamine110 substrate fluorescence; series mostly up to 57.1 µM
Results filed as inconclusive are left out. Calls of active or inactive are those of the source. Calls follow the shape of the dose curve; as a rule, active = well fitted inhibition curve with a large enough effect; inconclusive = small, poorly fitted or top-dose-only effect; inactive = no such curve, though single readings can be large or run the other way.
Would you mind answering with one of these outcomes? active, inactive

Qu. Recorded test outcome, item COC(C)(C)CCn1nc(Nc2c(C)cccc2C)c2cnc(Nc3ccc(OCCN4CCCC4)c(F)c3)nc21
Ans. inactive

* * *

- Tested on: CRL-7250
- assay-summary: Cytotoxic Profiling of Annotated Libraries Using Quantitative High-Throughput Screening (AID 1296008); also: nearly all actives have a fitted effect of over 60% in size
- condition-summary: Five cell lines viability, CellTiter-Glo ATP luminescence, 48-72 h
Results filed as inconclusive are left out. Calls of active or inactive are those of the source. Calls come from the whole dose curve; as a rule, active = well fitted inhibition curve with a large enough effect; inconclusive = small, poorly fitted or top-dose-only effect; inactive = flat fitted curve, though single readings scatter.
Respond using exactly one of the listed classes: active, inactive

Solved cases (4 shown):
• CCC[C@@]1(CCc2ccccc2)CC(O)=C([C@H](CC)c2cccc(NS(=O)(=O)c3ccc(C(F)(F)F)cn3)c2)C(=O)O1 = inactive
• CN1CCC(NC(=O)c2cc(-c3c(O)cc(O)cc3Oc3ccc([N+](=O)[O-])cc3)on2)CC1 = active
• Cc1csc2c(N[C@@H](C)CN3CCN(S(=O)(=O)c4ccc(Cl)c(Cl)c4)CC3)ncnc12 = active
• CN(CC1COCCO1)S(=O)(=O)Nc1ccc2ccc3ncc(-c4cnn(C)c4)cc3c(=O)c2c1 (stereo unspecified) = active

Qu. Assay result, entry CCOc1cc(C(C)(C)C)ccc1C1=N[C@@](C)(c2ccc(Cl)cc2)[C@@](C)(c2ccc(Cl)cc2)N1C(=O)N1CCN(CC(=O)N2CCOCC2)CC1 — outcome?
Ans. active

Qu. Record lookup: outcome of this test for N#Cc1ccc(Nc2nc(-c3ccc(O)cc3O)cs2)cc1C(F)(F)F ?
Ans. active

* * *

- Test system: Zika virus NS2B-NS3 protease (unlinked complex)
- assay-summary: Primary screen GU Rhodamine qHTS for Zika virus inhibitors: Unlinked NS2B-NS3 protease assay (AID 1347159); also: nearly all actives have a fitted effect of over 60% in size
- condition-summary: Recombinant ZIKV NS2B-NS3 protease, Rhodamine110 substrate fluorescence; series mostly up to 107 µM
Results filed as inconclusive are left out. Activity calls are given as the source filed them. Calls come from the whole dose curve; as a rule, active = well fitted inhibition curve with a large enough effect; inconclusive = small, poorly fitted or top-dose-only effect; inactive = no such curve, though single readings can be large or run the other way.
Classes to choose from: 1 = active, -1 = inactive

# example entries with known answers
• CN(C)C(CCOc1cccc2ccccc12)c1ccccc1 (stereo not drawn) = -1
• C=C(C)C(=O)O[C@H]1[C@H]2C(=C)C(=O)O[C@@H]2C[C@@H](C)[C@@H]2O[C@@H]2C(=O)[C@](C)(O)[C@@H]1OC(=O)C(=C)C = -1
• O=C(Nc1ccc2[nH]c(=O)oc2c1)C(=O)N1CCC(Cc2ccc(F)cc2)CC1 = -1
• C[C@@H]1C[C@H]2O[C@@]3(O[C@@H]2C(C)(C)O)C(O)[C@@]2(C)C4CCC5C(C)(C)[C@@H](O[C@H]6OC[C@H](O)[C@@H](O)[C@@H]6O)CC[C@@]56C[C@@]46CC[C@]2(C)C13 (stereo partly drawn) = -1
• COC1C(OC(=O)/C=C/C=C/C=C/C=C/C(=O)O)CCC2(CO2)C1C1(C)OC1CC=C(C)C (stereo not drawn) = 1

Qu. Which outcome did this test record for the compound C=CC(=O)N1CCC(Oc2cc3c(Nc4ccc(Cl)c(Cl)c4F)ncnc3cc2OC)CC1 ?
Ans. -1

Qu. Test call, this compound: C=C1CC[C@@H](O)[C@]2(C)CC[C@H]3C(=C)C(=O)O[C@@H]3[C@@H]12
Ans. -1

Qu. Assay result, entry N#CC(CCCN1CCN(/N=C/c2cccnc2)CC1)(c1ccccc1)c1ccccc1 — outcome?
Ans. -1
